Listed binders paired with reported In vitro activity (%) vs. GLP-1, cAMP EC50
Target Or System: human GLP-1 receptor (human, UniProt P43220 24-463)
Method Notes: cell-based or functional assay
Bridges are numbered along the chain shown (N, C = ends). Where no end group is shown, it is not given here. [ ]: non-standard residue; d: D form. The star is where a group is joined. Acetyl(2-(4-imidazolyl)) = O=C(Cc1c[nH]cn1)*; Aib = CC(C)(N)C(=O)O
Your answer is read as %, so omit the unit and give the number.

Known results for binders:
# Binder, Uom, Experimental Result
rows = [
    ("H[Aib]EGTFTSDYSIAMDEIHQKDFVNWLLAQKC (bridge 16-20) [triple agonist of SEQ ID NO: 79]", "%", 41.5),
    ("[Acetyl(2-(4-imidazolyl))][Aib]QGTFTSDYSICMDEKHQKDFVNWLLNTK (bridge 16-20; ends not checked) [triple agonist of SEQ ID NO: 59]", "%", 40.3),
    ("H[Aib]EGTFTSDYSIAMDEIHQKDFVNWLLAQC (bridge 16-20) [triple agonist of SEQ ID NO: 53]", "%", 161),
    ("H[Aib]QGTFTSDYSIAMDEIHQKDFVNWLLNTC (bridge 16-20; ends not checked) [triple agonist of SEQ ID NO: 57]", "%", 11.7),
]

// next entry
Exercise: What does the data say about its In vitro activity (%) vs. GLP-1, cAMP EC50? Entry: Y[Aib]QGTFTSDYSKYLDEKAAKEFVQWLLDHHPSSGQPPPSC (bridge 16-20) [triple agonist of SEQ ID NO: 75]
Solution: 35.1
